All figures here come from ChEMBL document CHEMBL3407458.

molecular target: Tubulin (Bos taurus) (UniProt Q6B856+Q862L2+Q862F3); experiment: Inhibition of bovine brain tubulin polymerization by fluorescence based tubulin polymerization assay
parameter measured: INH (µM)

Example results:
{"compound": "COc1cc(-c2cc(/C=C3\\C(=O)Nc4ccc(Cl)cc43)[nH]n2)cc(OC)c1OC", "system": "Tubulin (Bos taurus) (UniProt Q6B856+Q862L2+Q862F3)", "parameter measured": "INH", "readout number": 25.3}
{"compound": "COc1cc(-c2cc(/C=C3\\C(=O)Nc4cc(Cl)ccc43)[nH]n2)cc(OC)c1OC", "system": "Tubulin (Bos taurus) (UniProt Q6B856+Q862L2+Q862F3)", "parameter measured": "INH", "readout number": 22.4}
{"compound": "O=C1Nc2cc(Cl)ccc2/C1=C/c1cc(-c2ccc3c(c2)OCO3)n[nH]1", "system": "Tubulin (Bos taurus) (UniProt Q6B856+Q862L2+Q862F3)", "parameter measured": "INH", "readout number": 14.5}
{"compound": "O=C1Nc2ccc(Cl)cc2/C1=C/c1cc(-c2ccc3c(c2)OCO3)n[nH]1", "system": "Tubulin (Bos taurus) (UniProt Q6B856+Q862L2+Q862F3)", "parameter measured": "INH", "readout number": 35.3}
{"compound": "O=C1Nc2ccc([N+](=O)[O-])cc2/C1=C/c1cc(-c2ccc3c(c2)OCO3)n[nH]1", "system": "Tubulin (Bos taurus) (UniProt Q6B856+Q862L2+Q862F3)", "parameter measured": "INH", "readout number": 14.7}

a: COc1ccc(-c2cc(/C=C3\C(=O)Nc4ccccc43)[nH]n2)cc1
b: COc1cc(-c2cc(/C=C3\C(=O)Nc4ccc([N+](=O)[O-])cc43)[nH]n2)cc(OC)c1OC
c: COc1ccc(-c2cc(/C=C3\C(=O)Nc4ccc(OC)cc43)[nH]n2)cc1
Qu. Order the items by recorded INH; the first position goes to the largest value. Please express your ranking as an ordered list of the labels.
Ans. a, b, c

a: COc1ccc(-c2cc(/C=C3\C(=O)Nc4ccc([N+](=O)[O-])cc43)[nH]n2)cc1
b: COc1ccc2c(c1)/C(=C/c1cc(-c3ccc4c(c3)OCO4)n[nH]1)C(=O)N2
c: COc1ccc(-c2cc(/C=C3\C(=O)Nc4cc(Cl)ccc43)[nH]n2)cc1
Qu. Order the items by recorded INH; the first position goes to the largest value. Please express your ranking as an ordered list of the labels.
Ans. a, b, c

---

test system: A549; test: Cytotoxicity against human A549 cells assessed as cell viability after 48 hrs by MTT assay; format: functional, cell-based; conditions: A549, 48 h
Each entry below carries its reported IC50.
Give just the number in µM; leave the unit off.

Example results:
{"smiles data": "COc1ccc(-c2cc(/C=C3\\C(=O)Nc4ccccc43)[nH]n2)cc1", "parameter measured": "IC50", "readout number": 14}
{"smiles data": "COc1ccc(-c2cc(/C=C3\\C(=O)Nc4ccccc43)[nH]n2)cc1OC", "parameter measured": "IC50", "readout number": 29}

Now look at this one.
Qu. In one line, give reported IC50 of the entry COC(=O)Nc1nc2cc(C(=O)c3cccs3)ccc2[nH]1 .
Ans. 0.89
